Tested on: Streptococcus mutans
protocolDetails: Effect on Streptococcus mutans LMG 14558 assessed as inhibition of biofilm formation in modified Robbin's device at 5 ug/ml relative to BHIS control
Type: functional

[
  {
    "compound": "O=C1c2ccc(O)cc2C(=O)c2ccc(O)cc21",
    "unitTag": "%",
    "inhibition at 5 µg/mL": 98.2
  },
  {
    "compound": "Cc1cc(O)c2c(c1)C(=O)c1cc(O)cc(O)c1C2=O",
    "unitTag": "%",
    "inhibition at 5 µg/mL": 10.9
  },
  {
    "compound": "O=C(O)c1cc(O)c2c(c1)C(C1c3cccc(O)c3C(=O)c3c(O)cc(C(=O)O)cc31)c1cccc(O)c1C2=O (stereo unspecified)",
    "unitTag": "%",
    "inhibition at 5 µg/mL": 83.7
  },
  {
    "compound": "O=C1c2cccc(O)c2C(=O)c2c(O)cccc21",
    "unitTag": "%",
    "inhibition at 5 µg/mL": 91.3
  },
  {
    "compound": "Cc1c(C(=O)O)c(O)cc2c1C(=O)c1c(O)c([C@@H]3O[C@H](CO)[C@@H](O)[C@H](O)[C@H]3O)c(O)c(O)c1C2=O",
    "unitTag": "%",
    "inhibition at 5 µg/mL": 66.5
  },
  {
    "compound": "COc1cc(O)c2c(c1)C(=O)c1cc(C)cc(O)c1C2=O",
    "unitTag": "%",
    "inhibition at 5 µg/mL": 120
  },
  {
    "compound": "Cc1cc(O)c2c(=O)c3c(O)cc(O)c4c5c(O)cc(O)c6c(=O)c7c(O)cc(C)c8c1c2c(c34)c(c78)c65",
    "unitTag": "%",
    "inhibition at 5 µg/mL": 47.8
  },
  {
    "compound": "O=C1c2ccccc2C(=O)c2c(O)ccc(O)c21",
    "unitTag": "%",
    "inhibition at 5 µg/mL": 80
  },
  {
    "compound": "Cc1cc(O)c2c(c1)C(=O)c1cccc(O)c1C2=O",
    "unitTag": "%",
    "inhibition at 5 µg/mL": 75
  },
  {
    "compound": "Oc1cc(Cl)ccc1Oc1ccc(Cl)cc1Cl",
    "unitTag": "%",
    "inhibition at 5 µg/mL": 78.1
  },
  {
    "compound": "O=C(O)c1cc(O)c2c(c1)C(=O)c1cccc(O)c1C2=O",
    "unitTag": "%",
    "inhibition at 5 µg/mL": 75.2
  }
]
